species on record: Rattus norvegicus; assay: Open TG-GATES - Regimen: Daily Repeat; type: toxicity, organism-based, Sprague-Dawley; parameters: regimen Daily Repeat, gender Male, age 6 weeks; details: in vivo, po, 100 mg/kg, 72 h, tissue Kidney, route gavage, dose level Low, time 3 day
assayMetric: KIDNEY_L (g)
Report only the number, with the unit g understood.

Given COC(=O)C1=C(C)NC(C)=C(C(=O)OC)C1c1ccccc1[N+](=O)[O-] , state its recorded KIDNEY_L.
0.9

Others:
Given CN/C(=N/CCSCc1nc[nH]c1C)NC#N , state its recorded KIDNEY_L.
1

Given CNC(=C[N+](=O)[O-])NCCSCc1ccc(CN(C)C)o1 , state its recorded KIDNEY_L.
1

Given Cc1nnc2n1-c1ccc(Cl)cc1C(c1ccccc1Cl)=NC2 , state its recorded KIDNEY_L.
1

Given CCOc1ccc(NC(C)=O)cc1 , state its recorded KIDNEY_L.
1

Given O=C(OC[C@H]1O[C@@H](OC(=O)c2cc(O)c(O)c(OC(=O)c3cc(O)c(O)c(O)c3)c2)[C@H](OC(=O)c2cc(O)c(O)c(OC(=O)c3cc(O)c(O)c(O)c3)c2)[C@@H](OC(=O)c2cc(O)c(O)c(OC(=O)c3cc(O)c(O)c(O)c3)c2)[C@@H]1OC(=O)c1cc(O)c(O)c(OC(=O)c2cc(O)c(O)c(O)c2)c1)c1cc(O)c(O)c(OC(=O)c2cc(O)c(O)c(O)c2)c1 , state its recorded KIDNEY_L.
1

---

species on record: Rattus norvegicus; test: Open TG-GATES - Regimen: Single; format: toxicity, organism-based, Sprague-Dawley; design: regimen Single, gender Male, age 6 weeks; conditions: in vivo, po, 300 mg/kg, 6 h, tissue Blood, route gavage, dose level Middle
assayMetric: MCHC

Given O=C(OC[C@H]1O[C@@H](OC(=O)c2cc(O)c(O)c(OC(=O)c3cc(O)c(O)c(O)c3)c2)[C@H](OC(=O)c2cc(O)c(O)c(OC(=O)c3cc(O)c(O)c(O)c3)c2)[C@@H](OC(=O)c2cc(O)c(O)c(OC(=O)c3cc(O)c(O)c(O)c3)c2)[C@@H]1OC(=O)c1cc(O)c(O)c(OC(=O)c2cc(O)c(O)c(O)c2)c1)c1cc(O)c(O)c(OC(=O)c2cc(O)c(O)c(O)c2)c1 , state its recorded MCHC.
33.3%

Given Cc1nnc2n1-c1ccc(Cl)cc1C(c1ccccc1Cl)=NC2 , state its recorded MCHC.
32.6%

Given COC(=O)C1=C(C)NC(C)=C(C(=O)OC)C1c1ccccc1[N+](=O)[O-] , state its recorded MCHC.
32.6%

Given CN/C(=N/CCSCc1nc[nH]c1C)NC#N , state its recorded MCHC.
34.8%

Now take the following molecule into account.
Given CNC(=C[N+](=O)[O-])NCCSCc1ccc(CN(C)C)o1 , state its recorded MCHC.
34.7%

---

species: Rattus norvegicus; test: Open TG-GATES - Regimen: Single; type: toxicity, organism-based, Sprague-Dawley; set-up: regimen Single, gender Male, age 6 weeks; details: in vivo, po, 100 mg/kg, 24 h, tissue Plasma, route gavage, dose level Low
Quick list: Ca per entry.
Report only the number, with the unit mg/dL understood.

The cases that follow already have their Ca on record.
Given CNC(=C[N+](=O)[O-])NCCSCc1ccc(CN(C)C)o1 , state its recorded Ca.
10.8

Given O=C(OC[C@H]1O[C@@H](OC(=O)c2cc(O)c(O)c(OC(=O)c3cc(O)c(O)c(O)c3)c2)[C@H](OC(=O)c2cc(O)c(O)c(OC(=O)c3cc(O)c(O)c(O)c3)c2)[C@@H](OC(=O)c2cc(O)c(O)c(OC(=O)c3cc(O)c(O)c(O)c3)c2)[C@@H]1OC(=O)c1cc(O)c(O)c(OC(=O)c2cc(O)c(O)c(O)c2)c1)c1cc(O)c(O)c(OC(=O)c2cc(O)c(O)c(O)c2)c1 , state its recorded Ca.
10.8

Given Cc1nnc2n1-c1ccc(Cl)cc1C(c1ccccc1Cl)=NC2 , state its recorded Ca.
11.3

Given CN/C(=N/CCSCc1nc[nH]c1C)NC#N , state its recorded Ca.
10.8

Now take the following compound into account.
Given COC(=O)C1=C(C)NC(C)=C(C(=O)OC)C1c1ccccc1[N+](=O)[O-] , state its recorded Ca.
10.6
